Hello, the source for this data is paper PMC5700166, in case you need it.

- systemUnderTest: GST-Hu-p50 (Homo sapiens, UniProt P19838 7-356)
- Sequence (P19838 7-356): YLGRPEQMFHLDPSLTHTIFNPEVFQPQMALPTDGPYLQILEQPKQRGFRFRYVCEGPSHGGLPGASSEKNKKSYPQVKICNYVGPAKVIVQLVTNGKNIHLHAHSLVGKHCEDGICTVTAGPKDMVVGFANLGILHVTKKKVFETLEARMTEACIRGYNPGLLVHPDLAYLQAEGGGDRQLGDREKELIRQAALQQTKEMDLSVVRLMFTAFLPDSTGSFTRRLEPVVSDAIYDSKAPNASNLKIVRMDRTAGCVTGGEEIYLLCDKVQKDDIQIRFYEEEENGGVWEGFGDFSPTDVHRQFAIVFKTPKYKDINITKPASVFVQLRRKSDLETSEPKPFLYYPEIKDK
- experimentSummary: protein-binding microarray (PBM); PBM: ~300 nM protein, 6 mM HEPES pH 7.8, 80 mM KCl, 0.5 mM EDTA, 0.5 mM EGTA, 6% glycerol, 35 ng/ul poly-dIdC, 1% milk, 1 h, room temperature; high values mean tight binding
- conditionSet: dsDNA, one strand shown
measuredProperty: binding signal (z-score)
Expressed in z-score, but write only the number.

Below: 3 sequences and their reported binding signal.
Please look up its binding signal: CCGATTAACATCAATTCCCCAGGTGATGTTAATCGGGTCTTGATTCGCTTGACGCTGCTG
4.94

Reported binding signal, sequence CCGATTAACATCAGGGGAGTACCTGATGTTAATCGGGTCTTGATTCGCTTGACGCTGCTG : ____
4.93

Tell me the measured binding signal of CCGATTAACATCAAAATTTTCCGTGATGTTAATCGGGTCTTGATTCGCTTGACGCTGCTG , please.
1.66

---
Please report the recorded binding signal for CCGATTAACATCAAGTATCCCCCTGATGTTAATCGGGTCTTGATTCGCTTGACGCTGCTG .
5.34

Query (sequence): CCGATTAACATCAACGAATCCCCTGATGTTAATCGGGTCTTGATTCGCTTGACGCTGCTG ; field requested: binding signal
5.69

What value of binding signal has been recorded for this entry: CCGATTAACATCAAGGGAAATCCTGATGTTAATCGGGTCTTGATTCGCTTGACGCTGCTG
4.65

Please report the recorded binding signal for CCGATTAACATCAAAAAAACCCCTGATGTTAATCGGGTCTTGATTCGCTTGACGCTGCTG .
7.76

###

Quick reference for binding signal among some sequences
- systemUnderTest: GST-Co-NF-kB (Capsaspora owczarzaki, UniProt F1ARL5 200-546)
- Sequence: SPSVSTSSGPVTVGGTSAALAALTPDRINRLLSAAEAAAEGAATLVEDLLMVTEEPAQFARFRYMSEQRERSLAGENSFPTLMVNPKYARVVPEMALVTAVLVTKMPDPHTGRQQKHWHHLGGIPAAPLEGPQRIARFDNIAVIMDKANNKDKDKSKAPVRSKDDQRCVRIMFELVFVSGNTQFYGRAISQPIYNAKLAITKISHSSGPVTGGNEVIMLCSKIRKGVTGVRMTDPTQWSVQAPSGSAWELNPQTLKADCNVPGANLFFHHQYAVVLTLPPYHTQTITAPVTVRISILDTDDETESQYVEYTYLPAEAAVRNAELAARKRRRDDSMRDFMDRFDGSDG
- experimentSummary: protein-binding microarray (PBM); PBM: ~300 nM protein, 6 mM HEPES pH 7.8, 80 mM KCl, 0.5 mM EDTA, 0.5 mM EGTA, 6% glycerol, 35 ng/ul poly-dIdC, 1% milk, 1 h, room temperature; Ap Aiptasia and Nv Nematostella (sea anemones) / Co Capsaspora / Aq Amphimedon (sponge) / Dm Drosophila / Hu human; RHD is the Rel homology domain; high values mean tight binding
- conditionSet: dsDNA, one strand shown

Guide cases for binding signal, answers given:
Would you kindly share the measured binding signal for CCGATTAACATCAGGGAATCCCATGATGTTAATCGGGTCTTGATTCGCTTGACGCTGCTG ?
2.97 z-score

Fill blank: measured binding signal of the sequence CCGATTAACATCAAAAAACACCCTGATGTTAATCGGGTCTTGATTCGCTTGACGCTGCTG is ____.
2.93 z-score

Can you look up the measured binding signal of CCGATTAACATCAGGGAATTCACTGATGTTAATCGGGTCTTGATTCGCTTGACGCTGCTG for me?
3.01 z-score

// lookup binding signal for CCGATTAACATCAATCGGGAAATTGATGTTAATCGGGTCTTGATTCGCTTGACGCTGCTG
2.19 z-score

For CCGATTAACATCAGGATGCCCCCTGATGTTAATCGGGTCTTGATTCGCTTGACGCTGCTG , what is its reported binding signal?
1.55 z-score

Continuing:
I'd like to know its binding signal. The sequence in question is CCGATTAACATCAACCACCCCCCTGATGTTAATCGGGTCTTGATTCGCTTGACGCTGCTG
4.22 z-score

Record request: binding signal value, item CCGATTAACATCAAAAAGTTCCCTGATGTTAATCGGGTCTTGATTCGCTTGACGCTGCTG
4.37 z-score

So what does the record say about binding signal for CCGATTAACATCAAACAACCCCCTGATGTTAATCGGGTCTTGATTCGCTTGACGCTGCTG ?
2.66 z-score

What does the record list as binding signal for CCGATTAACATCAAATTCCCAACTGATGTTAATCGGGTCTTGATTCGCTTGACGCTGCTG ?
2.15 z-score
